target: Prolyl endopeptidase FAP (Homo sapiens); assay: hFAP Binding Assay; settings: read-out: kon (M-1-s-1)
measured parameter: kon (M⁻¹ s⁻¹)

CO[C@H]1CCCN(c2ccc3nccc(C(=O)NCC(=O)N4CSC[C@H]4C#N)c3c2)C1    680000
N#C[C@@H]1CSCN1C(=O)CNC(=O)c1ccnc2ccc(N3CC(F)(C4CC4)C3)cc12    9.7e+06
CS(=O)(=O)C[C@@H]1CN(c2ccc3nccc(C(=O)NCC(=O)N4CSC[C@H]4C#N)c3c2)CCO1    1.9e+06
Cc1noc(C)c1-c1ccc2nccc(C(=O)NCC(=O)N3CSC[C@H]3C#N)c2c1    5.2e+06
CC1(F)CCN(c2ccc3nccc(C(=O)NCC(=O)N4CSC[C@H]4C#N)c3c2)CC1    2.2e+06
COC1CN(c2ccc3nccc(C(=O)NCC(=O)N4CSC[C@H]4C#N)c3c2)C1    2.6e+07
CN1CCC(F)(c2ccc3nccc(C(=O)NCC(=O)N4CSC[C@H]4C#N)c3c2)CC1    190000
CC1(CC(F)F)CN(c2ccc3nccc(C(=O)NCC(=O)N4CSC[C@H]4C#N)c3c2)C1    1.2e+06
C[C@@H]1CCCN1c1ccc2nccc(C(=O)NCC(=O)N3CSC[C@H]3C#N)c2c1    5.9e+06
N#C[C@@H]1CSCN1C(=O)CNC(=O)c1ccnc2ccc(N3CC4(CC(F)C4)C3)cc12    3.1e+06
C[C@@H]1COC[C@H](C)N1c1cc2c(C(=O)NCC(=O)N3CSC[C@H]3C#N)ccnc2cc1Br    3e+06
N#C[C@@H]1CSCN1C(=O)CNC(=O)c1ccnc2ccc(N3CC4(CCC4)C3)cc12    8.3e+06
C[C@H]1CCCN(c2ccc3nccc(C(=O)NCC(=O)N4CSC[C@H]4C#N)c3c2)C1=O    440000
CC[C@H]1COCCN1c1ccc2nccc(C(=O)NCC(=O)N3CSC[C@H]3C#N)c2c1    1.8e+06

====

target: UniProt Q12884; test: hFAP Binding Assay
compounds and their reported koff
measured parameter: koff (s⁻¹)

N#C[C@@H]1CSCN1C(=O)CNC(=O)c1ccnc2ccc(N3CCC(F)(F)CC3)cc12    0.0001
C[C@@H]1COC[C@@H](C)N1c1ccc2nccc(C(=O)NCC(=O)N3CSC[C@H]3C#N)c2c1    6.8e-05
C[C@H]1CCCN(c2ccc3nccc(C(=O)NCC(=O)N4CSC[C@H]4C#N)c3c2)C1=O    6.3e-05
N#C[C@@H]1CSCN1C(=O)CNC(=O)c1ccnc2ccc(N3CCO[C@@H](C(F)(F)F)C3)cc12    0.00016
CO[C@H]1CCN(c2ccc3nccc(C(=O)NCC(=O)N4CSC[C@H]4C#N)c3c2)C1    5.3e-05
CC1(CF)CCN(c2ccc3nccc(C(=O)NCC(=O)N4CSC[C@H]4C#N)c3c2)CC1    3e-05
CC1(C)CN(c2ccc3nccc(C(=O)NCC(=O)N4CSC[C@H]4C#N)c3c2)CCO1    0.00034

====

molecular target: Prolyl endopeptidase FAP (Homo sapiens); assay: hFAP Binding Assay
Catalogue of koff readings, one per entry.
measured parameter: koff (s⁻¹)

C[C@H]1CCN(c2ccc3nccc(C(=O)NCC(=O)N4CSC[C@H]4C#N)c3c2)C1    0.00023
CO[C@@H]1CCN(c2ccc3nccc(C(=O)NCC(=O)N4CSC[C@H]4C#N)c3c2)C1    0.00028
C[C@H]1COCCCN1c1ccc2nccc(C(=O)NCC(=O)N3CSC[C@H]3C#N)c2c1    5.9e-05
CS(=O)(=O)C[C@@H]1CN(c2ccc3nccc(C(=O)NCC(=O)N4CSC[C@H]4C#N)c3c2)CCO1    9.9e-05
N#C[C@@H]1CSCN1C(=O)CNC(=O)c1ccnc2ccc(N3CC4(CC(C(F)(F)F)C4)C3)cc12    4.3e-05
N#C[C@@H]1CSCN1C(=O)CNC(=O)c1ccnc2ccc(N3CC4(CC(F)C4)C3)cc12    5e-05
CC1(C)OCCN(c2ccc3nccc(C(=O)NCC(=O)N4CSC[C@H]4C#N)c3c2)C1=O    4.1e-05

====

compounds and their reported kon
biological target: Prolyl endopeptidase FAP (Homo sapiens, UniProt Q12884); assay: hFAP Binding Assay; conditions: read-out: kon (M-1-s-1)
measured parameter: kon (M⁻¹ s⁻¹)

N#C[C@@H]1CSCN1C(=O)CNC(=O)c1ccnc2ccc(N3CC[C@@H](F)C3)cc12 [US20230312550, Example 52]    6.8e+06
CC(C)n1nccc1-c1ccc2nccc(C(=O)NCC(=O)N3CSC[C@H]3C#N)c2c1 [US20230312550, Example 197]    88000
CC1(C)CCN(c2ccc3nccc(C(=O)NCC(=O)N4CSC[C@H]4C#N)c3c2)C1 [US20230312550, Example 48]    1.4e+06
N#C[C@@H]1CSCN1C(=O)CNC(=O)c1ccnc2ccc(N3C[C@H]4CCC[C@@H](C3)O4)cc12 [US20230312550, Example 194]    1.1e+06
N#C[C@@H]1CSCN1C(=O)CNC(=O)c1ccnc2ccc(N3CCC34CCC4)cc12 [US20230312550, Example 19]    430000
N#C[C@@H]1CSCN1C(=O)CNC(=O)c1ccnc2ccc(N3CC4(CC4)C3)cc12 [US20230312550, Example 164]    1.4e+06
Cc1ncccc1-c1ccc2nccc(C(=O)NCC(=O)N3CSC[C@H]3C#N)c2c1 [US20230312550, Example 128]    5.4e+06
N#C[C@@H]1CSCN1C(=O)CNC(=O)c1ccnc2ccc(N3C[C@@H](F)[C@H](F)C3)cc12 [US20230312550, Example 214]    2.9e+06
C[C@H]1CCN(c2ccc3nccc(C(=O)NCC(=O)N4CSC[C@H]4C#N)c3c2)CCO1 [US20230312550, Example 62]    710000
N#C[C@@H]1CSCN1C(=O)CNC(=O)c1ccnc2ccc(N3CC4(CCCC4(F)F)C3)cc12 [US20230312550, Example 141]    1.4e+06
N#C[C@@H]1CSCN1C(=O)CNC(=O)c1ccnc2c(Cl)cc(N3CCOCC3)cc12 [US20230312550, Example 180]    560000
N#C[C@@H]1CSCN1C(=O)CNC(=O)c1ccnc2ccc(N3CC[C@H](F)C3)cc12 [US20230312550, Example 51]    5.6e+06
C[C@]1(F)CCN(c2ccc3nccc(C(=O)NCC(=O)N4CSC[C@H]4C#N)c3c2)C1 [US20230312550, Example 198]    2.9e+06
C[C@@H]1CN(c2ccc3nccc(C(=O)NCC(=O)N4CSC[C@H]4C#N)c3c2)C[C@H](C)[C@]1(C)O [US20230312550, Example 193]    740000

====

Target: Prolyl endopeptidase FAP (Homo sapiens)
Sequence (Q12884 whole entry): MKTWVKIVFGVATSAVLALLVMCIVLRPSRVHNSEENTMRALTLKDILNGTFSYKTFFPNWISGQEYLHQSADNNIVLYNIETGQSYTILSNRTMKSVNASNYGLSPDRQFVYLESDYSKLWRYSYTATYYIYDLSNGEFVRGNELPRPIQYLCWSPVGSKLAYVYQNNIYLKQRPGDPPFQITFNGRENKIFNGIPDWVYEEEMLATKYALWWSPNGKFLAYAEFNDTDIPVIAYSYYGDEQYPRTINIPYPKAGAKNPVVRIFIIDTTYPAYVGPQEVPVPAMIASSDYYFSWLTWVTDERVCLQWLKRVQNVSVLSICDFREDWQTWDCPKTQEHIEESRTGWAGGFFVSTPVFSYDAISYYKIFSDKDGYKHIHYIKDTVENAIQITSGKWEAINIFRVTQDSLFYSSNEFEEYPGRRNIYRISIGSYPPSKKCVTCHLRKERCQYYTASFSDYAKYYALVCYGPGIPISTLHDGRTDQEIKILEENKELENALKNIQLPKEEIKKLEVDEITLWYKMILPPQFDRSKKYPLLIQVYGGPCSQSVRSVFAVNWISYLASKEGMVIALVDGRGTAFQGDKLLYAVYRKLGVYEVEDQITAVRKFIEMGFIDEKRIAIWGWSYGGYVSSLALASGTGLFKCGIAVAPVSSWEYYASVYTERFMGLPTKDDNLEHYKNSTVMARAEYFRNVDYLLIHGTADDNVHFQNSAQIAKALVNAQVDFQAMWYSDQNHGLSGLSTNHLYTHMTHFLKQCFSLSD
Assay: hFAP Binding Assay
Conditions: read-out: kon (M-1-s-1)
kon overview
measured parameter: kon (M⁻¹ s⁻¹)

N#C[C@@H]1CSCN1C(=O)CNC(=O)c1ccnc2ccc(N3CC4(COC4)C3)cc12    2.2e+06
CO[C@@H]1CN(c2ccc3nccc(C(=O)NCC(=O)N4CSC[C@H]4C#N)c3c2)[C@H]1C    5.2e+06
C[C@H]1COC[C@H](C)N1c1ccc2nccc(C(=O)NCC(=O)N3CSC[C@H]3C#N)c2c1    3e+06
CCC1(O)CN(c2ccc3nccc(C(=O)NCC(=O)N4CSC[C@H]4C#N)c3c2)C1    910000
COC[C@@H]1CN(c2ccc3nccc(C(=O)NCC(=O)N4CSC[C@H]4C#N)c3c2)CCO1    1.8e+06
C[C@@H]1COC[C@@H](C)N1c1ccc2nccc(C(=O)NCC(=O)N3CSC[C@H]3C#N)c2c1    890000
CC1(C)CCN1c1ccc2nccc(C(=O)NCC(=O)N3CSC[C@H]3C#N)c2c1    4.2e+06
